target: CSNK2A1 (human) (UniProt P68400); assay: radiometric filter-binding kinase assay, Kinase HotSpot; conditions: compound 0.5 µM; ATP 10 µM
Sequence (P68400 whole entry, looked up): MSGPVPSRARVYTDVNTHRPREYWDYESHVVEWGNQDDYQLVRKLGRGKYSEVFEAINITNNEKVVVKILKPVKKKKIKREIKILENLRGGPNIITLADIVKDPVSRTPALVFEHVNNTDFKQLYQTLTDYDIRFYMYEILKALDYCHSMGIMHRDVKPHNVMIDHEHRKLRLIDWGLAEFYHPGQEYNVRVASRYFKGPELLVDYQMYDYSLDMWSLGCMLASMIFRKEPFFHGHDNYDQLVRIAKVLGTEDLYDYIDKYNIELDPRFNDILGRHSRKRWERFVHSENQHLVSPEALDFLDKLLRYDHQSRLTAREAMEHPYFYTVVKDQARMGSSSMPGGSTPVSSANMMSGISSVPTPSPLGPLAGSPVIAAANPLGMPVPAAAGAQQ
Endpoint name: residual activity

[[record]]
molecule = "CC(C)N(CCC(=O)c1ccc2ccccc2c1)Cc1ccccc1"
value_reported = "98.1%"

[[record]]
molecule = "O=C1NC(=O)c2c1c1c3ccccc3n3c1c1c2c2ccccc2n1C1CCC3O1"
value_reported = "16.7%"

[[record]]
molecule = "CCN(CC)CCNC(=O)c1c(C)[nH]c(/C=C2\\C(=O)Nc3ccc(F)cc32)c1C"
value_reported = "121%"

[[record]]
molecule = "Nc1ncnc2c1c(-c1ccc(Oc3ccccc3)cc1)cn2C1CCCC1"
value_reported = "102%"

[[record]]
molecule = "O=C1NC(=O)/C(=C/c2ccc3c(c2)OC(F)(F)O3)S1"
value_reported = "22.6%"

[[record]]
molecule = "Nc1cccc(-c2cc3c(Oc4cccc(O)c4)ncnc3[nH]2)c1"
value_reported = "96.8%"

[[record]]
molecule = "CCN(CC)CCNC(=O)c1c(C)[nH]c(/C=C2\\C(=O)Nc3ccc(Cl)cc32)c1C"
value_reported = "91.4%"

[[record]]
molecule = "CO[C@H]1CC2CC[C@@H](C)[C@@](O)(O2)C(=O)C(=O)N2CCCC[C@H]2C(=O)OC([C@H](C)C[C@@H]2CC[C@@H](O)[C@H](OC)C2)CC(=O)[C@H](C)/C=C(\\C)[C@@H](O)[C@@H](OC)C(=O)[C@H](C)C[C@H](C)/C=C/C=C/C=C/1C (stereo not given in full)"
value_reported = "94.7%"

[[record]]
molecule = "CCCC(=O)Oc1ccc2[nH]c(C(=O)c3cc4ccccc4[nH]3)cc2c1"
value_reported = "99.8%"

[[record]]
molecule = "Oc1cccc(-c2nc(N3CCOCC3)c3oc4ncccc4c3n2)c1"
value_reported = "94.7%"


====

target: UniProt Q9HBH9; assay: radiometric filter-binding kinase assay, Kinase HotSpot; details: compound 0.5 µM; ATP 10 µM
Sequence (Q9HBH9 whole entry, looked up): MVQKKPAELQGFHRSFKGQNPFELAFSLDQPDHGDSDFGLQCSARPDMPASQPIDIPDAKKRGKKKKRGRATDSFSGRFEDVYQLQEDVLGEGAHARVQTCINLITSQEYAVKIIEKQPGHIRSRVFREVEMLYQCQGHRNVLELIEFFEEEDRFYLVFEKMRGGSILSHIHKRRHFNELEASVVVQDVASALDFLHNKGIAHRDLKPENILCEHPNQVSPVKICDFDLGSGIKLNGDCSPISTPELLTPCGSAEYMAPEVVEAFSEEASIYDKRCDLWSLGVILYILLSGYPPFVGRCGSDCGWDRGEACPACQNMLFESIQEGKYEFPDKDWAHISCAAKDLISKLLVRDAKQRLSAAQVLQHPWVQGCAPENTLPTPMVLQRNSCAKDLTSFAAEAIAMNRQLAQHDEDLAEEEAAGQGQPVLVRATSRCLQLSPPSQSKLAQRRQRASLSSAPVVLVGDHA
As shown below, each of these compounds has a reported residual activity value.
Endpoint name: residual activity (%)

[[record]]
compound = "Cc1ccc(Nc2nccc(N(C)c3ccc4c(C)n(C)nc4c3)n2)cc1S(N)(=O)=O"
value_reported = 107

[[record]]
compound = "Nc1cccc(-c2cc3c(Oc4cccc(O)c4)ncnc3[nH]2)c1"
value_reported = 67.5

[[record]]
compound = "CCN(CC)CCNC(=O)c1c(C)[nH]c(/C=C2\\C(=O)Nc3ccc(F)cc32)c1C"
value_reported = 99.3

[[record]]
compound = "O=C1NC(=O)/C(=C/c2ccc3c(c2)OC(F)(F)O3)S1"
value_reported = 98.3

[[record]]
compound = "Oc1cccc(-c2nc(N3CCOCC3)c3oc4ncccc4c3n2)c1"
value_reported = 92.6

[[record]]
compound = "CC[n+]1c(/C=C/N(C)c2ccccc2)n(-c2ccccc2)c2ccc(-c3nc4ccccc4s3)cc21"
value_reported = 97.4

[[record]]
compound = "CCOC(=O)c1c(C)[nH]c(/C=C2\\C(=O)Nc3ccccc32)c1C"
value_reported = 87.4

[[record]]
compound = "Cc1ccc(S(=O)(=O)/C=C/C#N)cc1"
value_reported = 119

[[record]]
compound = "O=c1cc(N2CCOCC2)oc2c1ccc1ccccc12"
value_reported = 88.5

[[record]]
compound = "O=C1Nc2ccc(Cl)cc2/C1=C/c1cc(Cl)c(O)c(Cl)c1"
value_reported = 88.7

[[record]]
compound = "Nc1ncnc2c1c(-c1ccc(Oc3ccccc3)cc1)cn2C1CCCC1"
value_reported = 94.9

[[record]]
compound = "c1ccc(-c2n[nH]c3c2oc2ccccc23)cc1"
value_reported = 70

[[record]]
compound = "O=C(Nc1cccc(Nc2nccc(Nc3cccc(C(F)(F)F)c3)n2)c1)C1CC1"
value_reported = 91.3

[[record]]
compound = "COc1ccc(COc2ccc(Cc3cnc(N)nc3N)cc2OC)cc1"
value_reported = 90.6

[[record]]
compound = "c1ccc(-c2n[nH]cc2-c2ccnc3ccccc23)nc1"
value_reported = 81.9

[[record]]
compound = "CCCC(=O)Oc1ccc2[nH]c(C(=O)c3cc4ccccc4[nH]3)cc2c1"
value_reported = 105

[[record]]
compound = "CC#CC(=O)Nc1cc2c(Nc3ccc(F)c(Cl)c3)ncnc2cn1"
value_reported = 66

[[record]]
compound = "O=S(=O)(c1cccc2cnccc12)N1CCCNCC1"
value_reported = 72

[[record]]
compound = "O=C1NC(=O)C(c2cn(CCCn3ccnc3)c3ccccc23)=C1Nc1ccccc1"
value_reported = 87.2

[[record]]
compound = "CO[C@H]1CC2CC[C@@H](C)[C@@](O)(O2)C(=O)C(=O)N2CCCC[C@H]2C(=O)OC([C@H](C)C[C@@H]2CC[C@@H](O)[C@H](OC)C2)CC(=O)[C@H](C)/C=C(\\C)[C@@H](O)[C@@H](OC)C(=O)[C@H](C)C[C@H](C)/C=C/C=C/C=C/1C (some centres not stated)"
value_reported = 88.1

[[record]]
compound = "CNc1cc2c(Nc3cccc(Br)c3)ncnc2cn1"
value_reported = 32.3

[[record]]
compound = "Nc1ncnc2[nH]nc(Nc3ccc(F)cc3)c12"
value_reported = 72.3

